Test system: Rattus norvegicus
Assay name: AUC in rat at 1 mg/kg, iv
Format: ADME, organism-based, Plasma
Parameters: dose 1 mg/kg, route intravenous
Condition info: in vivo
Kind request: treat 4 ug/hr.ml as inclusive, so AUC at 4 ug/hr.ml or higher is condition met, anything lower is condition not met.

These solved cases illustrate the format of a correct answer.
Input smiles	Measured on	Qualitative label
COc1c(N2CC[C@@H]([C@H](C)NCCC#N)C2)c(F)cc2c(=O)c(C(=O)O)cn(C3CC3)c12	Rattus norvegicus	condition not met
CCC1(CNCCC#N)CN(c2c(F)cc3c(=O)c(C(=O)O)cn(C4CC4)c3c2C)C1	Rattus norvegicus	condition met
CN[C@@H](CC#N)[C@@H]1CCN(c2c(F)cc3c(=O)c(C(=O)O)cn(C4CC4)c3c2OC)C1	Rattus norvegicus	condition met
COc1c(N2CC[C@@H]([C@@H](N)CC#N)C2)ccc2c(=O)c(C(=O)O)cn(C3CC3)c12	Rattus norvegicus	condition met

Request: # check: AUC of Cc1c(N2CC(C)(CN)C2)c(F)cc2c(=O)c(C(=O)O)cn(C3CC3)c12 is greater than or equal to 4 ug/hr.ml
Result: condition not met
